Source of measurements: patent US20170240637A1

- target-or-test-system: T1, wild type 2Ig-B7H3-mFc (human, UniProt Q5ZPR3-2 29-248, limits assumed)
- T1 construct: Q5ZPR3 canonical entry is the 4Ig isoform; the 2Ig form is its shorter isoform; also called 2Ig-B7H3-Fc; WT 2Ig-B7H3-Fc; not shown: mouse Fc
- T1 sequence (looked up): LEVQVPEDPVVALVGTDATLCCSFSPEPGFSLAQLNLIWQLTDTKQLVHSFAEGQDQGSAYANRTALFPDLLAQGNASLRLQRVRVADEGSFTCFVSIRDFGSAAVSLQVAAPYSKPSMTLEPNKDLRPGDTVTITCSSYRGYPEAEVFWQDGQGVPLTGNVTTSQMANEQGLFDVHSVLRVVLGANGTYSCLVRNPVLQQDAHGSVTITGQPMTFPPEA
- method-summary: SPR, IgG on 2Ig-B7H3-mFc
observed-property: koff

hu8H9-H1L2 IgG1 (antibody, V domains shown) VH: QVQLVQSGAEVKKPGASVKLSCKASGYTFTNYDINWVRQAPGQGLEWIGWIFPGDGSTQYNEKFKGKATLTTDTSTSTAYMELSSLRSEDTAVYFCARQTTATWFAYWGQGTLVTVSS VL: EIVMTQSPATLSVSPGERVTLSCRASQSISDYLHWYQQKSHESPRLLIKYASQSISGIPARFSGSGSGTEFTLTINSVEPEDVGVYYCQNGHSFPLTFGQGTKLEIKR yielded koff of 0.00116 s⁻¹

hu8H9 5.1 IgG1 (antibody, V domains shown, also called clone 5.1) VH: QVQLVQSGAEVVKPGASVKVSCKTSGYTFTNYDINWVRQRPGQGLEWIGWIFPGDDSTQYNEKFKGRVTMTTDTSTSTVYMELSSLRSEDTAVYFCARQTTGTWFAYWGQGTLVTVSS VL: EIVMTQSPATLSVSPGERVTLSCRASQSISDYLYWYQQKSHQAPRLLIKYASQSISGIPARFSGSGSGSEFTLTISSLQPEDFGVYYCQNGHSFPLTFGQGTKLELKR yielded koff of 5.59e-05 s⁻¹

hu8H9 H3L3 IgG1 (antibody, V domains shown) VH: QVQLVQSGAEVVKPGASVKLSCKASGYTFTNYDINWVRQRPEQGLEWIGWIFPGDGSTQYNEKFKGKATLTTDTSTSTAYMELSSLRSEDTAVYFCARQTTATWFAYWGQGTLVTVSS VL: EIVMTQSPATLSVSPGERVSLSCRASQSISDYLHWYQQKSHESPRLLIKYASQSISGIPARFSGSGSGSEFTLTINSVEPEDVGVYYCQNGHSFPLTFGQGTKLELKR yielded koff of 0.035 s⁻¹
